Please respond with reported pIC50 for every item in the list.
- target-desc: KRas G12D (Homo sapiens (Human), UniProt P01116, G12D)
- Sequence (P01116 other isoform, or with tags, fused parts or gaps G12D): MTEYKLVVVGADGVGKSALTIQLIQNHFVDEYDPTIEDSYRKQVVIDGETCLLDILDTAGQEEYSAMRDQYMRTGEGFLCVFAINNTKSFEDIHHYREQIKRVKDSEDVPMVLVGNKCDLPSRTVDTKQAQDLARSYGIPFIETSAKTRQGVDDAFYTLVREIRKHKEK
- assay-summary: KRas G12D Binding Assay (TR-FRET displacement)
- conditions: TR-FRET displacement of Cy5 labelled tracer, GDP-loaded KRAS G12D, 60 minute incubation at 22° C.
Expect pIC50 as a plain number equal to -log10 of the molar concentration.

Field request: pIC50 | item: CC(C)c1cccc2cc(O)cc(-c3ncc4c(N5CC6CCC(C5)N6)nc(OC[C@@]56CCCN5C[C@H](F)C6)nc4c3F)c12 (racemic)
8.64

Field request: pIC50 | item: Nc1ccc(Cl)c(F)c1-c1ncc2c(N3CC4CCC(C3)N4)nc(OC[C@@]34CCCN3C[C@H](F)C4)nc2c1F (racemic) [Example 380, bis(2,2,2-trifluoroacetate)]
7.18

Field request: pIC50 | item: "CC(C)N1CCC[C@H]1COc1nc(N2C[C@H]3C[C@@H](O)[C@@H](C2)N3)c2cnc(-c3cccc4cccc(Cl)c34)c(F)c2n1"
7.29

Field request: pIC50 | item: "Oc1cc(-c2ncc3c(N4C[C@H]5CC[C@@H](C4)N5)nc(OCCCN4C[C@@H]5C[C@H]4CO5)nc3c2F)c2ccccc2c1"
8.10

Field request: pIC50 | item: Fc1c(-c2cncc3cccc(Cl)c23)ncc2c(N3C[C@H]4CC[C@@H](C3)N4)nc(OCC34CCCN3CCC4)nc12 [Example 33, bis(2,2,2-trifluoroacetate)]
7.68

Field request: pIC50 | item: "[2H]C#Cc1cccc2cccc(-c3ncc4c(N5C[C@H]6CC[C@@H](C5)N6)nc(OCC56CCCN5CCC6)nc4c3F)c12"
9.15

Field request: pIC50 | item: CC(C)(C)c1ccccc1-c1ncc2c(N3CC4CCC(C3)N4)nc(OC[C@@]34CCCN3C[C@H](F)C4)nc2c1F (racemic)
6.98

Field request: pIC50 | item: OCC(O)CCOc1nc(N2C[C@H]3CC[C@@H](C2)N3)c2cnc(-c3cccc4cccc(Cl)c34)c(F)c2n1 (stereo partly drawn)
5.14

Field request: pIC50 | item: Fc1c(-c2ccccc2C2CC2)ncc2c(N3CC4CCC(C3)N4)nc(OC[C@@]34CCCN3C[C@H](F)C4)nc12 (racemic)
6.68

Field request: pIC50 | item: OCC(COc1nc(N2C[C@H]3CC[C@@H](C2)N3)c2cnc(-c3cccc4cccc(Cl)c34)c(F)c2n1)c1cccnc1 (stereo partly drawn)
6.02

Field request: pIC50 | item: "OC[C@@H](O)COc1nc(N2C[C@H]3CC[C@@H](C2)N3)c2cnc(-c3cccc4cccc(Cl)c34)c(F)c2n1"
5.23

Field request: pIC50 | item: Oc1ccc(SC(F)(F)F)c(-c2ncc3c(N4CC5CCC(C4)N5)nc(OC[C@@]45CCCN4C[C@H](F)C5)nc3c2F)c1 (racemic)
8.70

###

- Tested on: KRas G12D-mediated phosphorylation of ERK
- assay-summary: Inhibition of KRas G12D-mediated phosphorylation of ERK in AGS cells
- Format: cell-based
- conditions: Homo sapiens; AGS cells expressing G12D, 3 hours, phospho-ERK normalized to GAPDH
hey, just use T if measured IC50 is less than 2000 nM, otherwise F

In the record for Oc1ccc(CC(F)(F)F)c(-c2ncc3c(N4C[C@H]5CC[C@@H](C4)N5)nc(OC[C@@]45CCCN4C[C@H](F)C5)nc3c2F)c1 [Example 424] , is IC50 less than 2000 nM?
T

In the record for Fc1c(-c2c3ccccc3cc3[nH]ncc23)ncc2c(N3C[C@H]4CC[C@@H](C3)N4)nc(OCC34CCCN3CCC4)nc12 [Example 257] , is IC50 less than 2000 nM?
T

In the record for Cc1ccc2[nH]ncc2c1-c1ncc2c(N3CC4CCC(C3)N4)nc(OCC34CCCN3C[C@H](F)C4)nc2c1F (mixture of isomers) [Example 331] , is IC50 less than 2000 nM?
F

In the record for Cc1cc(-c2ncc3c(N4C[C@H]5CC[C@@H](C4)N5)nc(OCC45CCCN4CCC5)nc3c2F)c2c(Cl)cccc2c1 [Example 175] , is IC50 less than 2000 nM?
F

In the record for COCCCOc1nc(N2C[C@H]3CC[C@@H](C2)N3)c2cnc(-c3cc(O)cc4ccccc34)c(F)c2n1 [Example 68] , is IC50 less than 2000 nM?
F

In the record for CNC(=O)O[C@@H]1CN2CCC[C@]2(COc2nc(N3C[C@H]4CC[C@@H](C3)N4)c3cnc(-c4cccc5cccc(Cl)c45)c(F)c3n2)C1 [Example 435] , is IC50 less than 2000 nM?
T

###

- System: KRas G12D-mediated phosphorylation of ERK
- assay-summary: Inhibition of KRas G12D-mediated phosphorylation of ERK in AGS cells
- Assay type: cell-based
- conditions: Homo sapiens; AGS cells expressing G12D, 3 hours, phospho-ERK normalized to GAPDH
Please respond with reported pIC50 for every item in the list.
Expect pIC50 as a plain number equal to -log10 of the molar concentration.

Field request: pIC50 | item: CCc1c(F)ccc2cccc(-c3ncc4c(N5C[C@H]6CC[C@@H](C5)N6)nc(OCC56CCCN5CCC6)nc4c3F)c12 [Example 426]
6.64

Field request: pIC50 | item: COCCO[C@@H]1C[C@@H](COc2nc(N3C[C@H]4CC[C@@H](C3)N4)c3cnc(-c4cccc5cccc(Cl)c45)c(F)c3n2)N(C)C1 [Example 202]
4.99

Field request: pIC50 | item: Cc1cc2[nH]ccc2c(-c2ncc3c(N4C[C@H]5CC[C@@H](C4)N5)nc(OCC45CCCN4CCC5)nc3c2F)c1C [Example 250]
5.13

Field request: pIC50 | item: Cc1cccnc1CCOc1nc(N2C[C@H]3CC[C@@H](C2)N3)c2cnc(-c3cc(O)cc4ccccc34)c(F)c2n1 [Example 6]
4.94

Field request: pIC50 | item: C#Cc1cccc2cc(OC)cc(-c3ncc4c(N5C[C@H]6CC[C@@H](C5)N6)nc(OCC56CCCN5CCC6)nc4c3F)c12 [Example 231]
5.55

Field request: pIC50 | item: Oc1cc(-c2ncc3c(N4C[C@H]5CC[C@@H](C4)N5)nc(N4CCC4)nc3c2F)c2ccccc2c1 [Example 119, 2,2,2-trifluoroacetate]
5.43

Field request: pIC50 | item: Fc1c(-c2cccc3cccc(F)c23)ncc2c(N3C[C@H]4CC[C@@H](C3)N4)nc(OCC34CCCN3CCC4)nc12 [Example 234]
6.39

Field request: pIC50 | item: Oc1cc(Cl)c(C(F)(F)F)c(-c2ncc3c(N4C[C@H]5CC[C@@H](C4)N5)nc(OC[C@@]45CCCN4C[C@H](F)C5)nc3c2F)c1 [Example 284]
7.76

Field request: pIC50 | item: CN1CCC[C@H]1COc1nc(N2C[C@H]3CC[C@@H](C2)N3)c2cnc(-c3cc(O)cc4cccc(Cl)c34)c(F)c2n1 [Example 63]
6.73

Field request: pIC50 | item: CC(Oc1nc(N2C[C@H]3CC[C@@H](C2)N3)c2cnc(-c3cc(O)cc4ccccc34)c(F)c2n1)C1CCCN1C (stereo partly shown) [Example 27]
5.89

Field request: pIC50 | item: CN1CCC[C@H]1COc1nc(N2CC3C[C@@H](O)C(C2)N3)c2cnc(-c3cc(O)cc4ccccc34)c(F)c2n1 (stereo partly shown) [Example 31]
5.62

###

- Tested on: KRas G12D-mediated phosphorylation of ERK
- assay-summary: Inhibition of KRas G12D-mediated phosphorylation of ERK in AGS cells
- Format: cell-based
- conditions: Homo sapiens; AGS cells expressing G12D, 3 hours, phospho-ERK normalized to GAPDH
Please respond with reported IC50 for every item in the list.
The reply should contain only the number, in nM.

Please tell me: IC50 of Oc1cc(-c2ncc3c(N4C[C@H]5CC[C@@H](C4)N5)nc(OCC(F)(F)C(F)F)nc3c2F)c2ccccc2c1 [Example 52] , system KRas G12D-mediated phosphorylation of ERK?
8380

Please tell me: IC50 of Fc1c(-c2cccc3cccc(C(F)(F)F)c23)ncc2c(N3C[C@H]4CC[C@@H](C3)N4)nc(OC[C@@]34CCCN3C[C@H](F)C4)nc12 [Example 419] , system KRas G12D-mediated phosphorylation of ERK?
2780

Please tell me: IC50 of CCc1cccc2cc(O)cc(-c3ncc4c(N5C[C@H]6CC[C@@H](C5)N6)nc(OC[C@]56CCCN5[C@@H](COC(=O)NC)CC6)nc4c3F)c12 [Example 433] , system KRas G12D-mediated phosphorylation of ERK?
43.2

Please tell me: IC50 of O[C@@H]1C[C@@H]2CN(c3nc(OC[C@@]45CCCN4C[C@H](F)C5)nc4c(F)c(-c5cccc6cccc(Cl)c56)ncc34)C[C@H]1N2 [Example 395] , system KRas G12D-mediated phosphorylation of ERK?
1090

Please tell me: IC50 of C[C@H]1C[C@@H]1c1c(Cl)cc(O)cc1-c1ncc2c(N3C[C@H]4CC[C@@H](C3)N4)nc(OC[C@@]34CCCN3C[C@H](F)C4)nc2c1F [Example 451] , system KRas G12D-mediated phosphorylation of ERK?
78.3

Please tell me: IC50 of Oc1cc(-c2ncc3c(N4C[C@H]5CC[C@@H](C4)N5)nc(OCCCN4CCOCC4)nc3c2F)c2ccccc2c1 [Example 22] , system KRas G12D-mediated phosphorylation of ERK?
1890

Please tell me: IC50 of C=Cc1cccc2cccc(-c3ncc4c(N5C[C@H]6CC[C@@H](C5)N6)nc(OC[C@@H]5CCCN5C)nc4c3F)c12 [Example 201] , system KRas G12D-mediated phosphorylation of ERK?
13900

Please tell me: IC50 of CN(C)C1CN(c2nc(N3C[C@H]4CC[C@@H](C3)N4)c3cnc(-c4cc(O)cc5ccccc45)c(F)c3n2)C1 [Example 120, bis(2,2,2-trifluoroacetate)] , system KRas G12D-mediated phosphorylation of ERK?
2090

Please tell me: IC50 of Cc1c(Cl)cc2[nH]ncc2c1-c1ncc2c(N3CC4CCC(C3)N4)nc(OC[C@@]34CCCN3C[C@H](F)C4)nc2c1F (stereo in doubt) [Example 401] , system KRas G12D-mediated phosphorylation of ERK?
604

Please tell me: IC50 of CCc1c(Cl)cccc1-c1ncc2c(N3C[C@H]4CC[C@@H](C3)N4)nc(OCC34CCCN3CCC4)nc2c1F [Example 312] , system KRas G12D-mediated phosphorylation of ERK?
1880
